Tested on: HIV-1 IIIB
Assay: HIV-1 infection assay using MT-2 cells
Type: cell-based
Details: Human immunodeficiency virus 1, IIIB, MT2, read-out: EC50 IIIB
measure-name: pEC50
// field semantics: pEC50 = negative decimal log of concentration (mol/L)

Query: Suppose we examine the compound `COCc1cc(N)c(Nc2ccc(C#N)cc2)cc1Oc1c(C)cc(CCC#N)cc1C` ; what pEC50 value has been reported?
Reply: 8.49

Query: // returns reported pEC50 for input `CC(=O)OCc1cc(N)c(Nc2ccc(C#N)cc2)cc1Oc1c(C)cc(CCC#N)cc1C`
Reply: 9.02
